Measured values drawn from patent US20250122223A1 for this set.

Below is a list of entries, each paired with its recorded pIC50 value.
testedTarget: UniProtKB Q93009
Sequence (Q93009 whole entry): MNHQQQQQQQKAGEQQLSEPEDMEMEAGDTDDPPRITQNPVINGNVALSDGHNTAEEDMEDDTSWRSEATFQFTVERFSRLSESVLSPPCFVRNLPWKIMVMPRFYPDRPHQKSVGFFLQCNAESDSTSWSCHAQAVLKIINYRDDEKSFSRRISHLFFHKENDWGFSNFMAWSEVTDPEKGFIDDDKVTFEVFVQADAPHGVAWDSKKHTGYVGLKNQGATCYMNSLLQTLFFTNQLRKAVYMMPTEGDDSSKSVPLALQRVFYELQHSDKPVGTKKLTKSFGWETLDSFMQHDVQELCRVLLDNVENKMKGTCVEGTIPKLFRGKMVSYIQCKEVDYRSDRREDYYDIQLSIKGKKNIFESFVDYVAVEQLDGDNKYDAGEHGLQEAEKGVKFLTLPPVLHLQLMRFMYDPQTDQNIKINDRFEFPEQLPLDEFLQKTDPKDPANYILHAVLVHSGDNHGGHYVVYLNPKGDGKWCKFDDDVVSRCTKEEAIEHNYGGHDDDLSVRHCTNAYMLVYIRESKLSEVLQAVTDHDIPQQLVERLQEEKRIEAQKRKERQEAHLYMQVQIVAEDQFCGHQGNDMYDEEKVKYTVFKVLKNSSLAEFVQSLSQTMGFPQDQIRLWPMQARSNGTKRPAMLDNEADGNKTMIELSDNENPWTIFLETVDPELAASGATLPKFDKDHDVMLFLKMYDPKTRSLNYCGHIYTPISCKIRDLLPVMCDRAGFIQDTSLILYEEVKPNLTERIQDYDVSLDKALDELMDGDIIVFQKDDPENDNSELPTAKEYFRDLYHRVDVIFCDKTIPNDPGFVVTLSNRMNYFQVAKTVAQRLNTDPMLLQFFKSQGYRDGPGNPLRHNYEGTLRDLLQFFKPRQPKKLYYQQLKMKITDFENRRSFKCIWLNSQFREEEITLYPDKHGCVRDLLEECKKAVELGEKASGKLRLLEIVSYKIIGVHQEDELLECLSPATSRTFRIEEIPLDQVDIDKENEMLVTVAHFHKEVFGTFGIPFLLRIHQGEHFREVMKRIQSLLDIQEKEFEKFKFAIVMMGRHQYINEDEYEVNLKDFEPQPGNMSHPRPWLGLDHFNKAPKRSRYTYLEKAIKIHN
testDescription: USP7 fluorescence polarisation (FP) assay with ubiquitin-Lys-TAMRA substrate
Type: biochemical
experimentalConditions: biochemical inhibition; read-out: USP7 IC50 activity (Table 3a, classes)
Method: USP7 activity was monitored in a fluorescence polarisation (FP) homogeneous assay using the isopeptide ubiquitin-Lys-TAMRA substrate (U-558, Boston Biochem). Full-length USP7 was purchased from Boston Biochem (His6-USP7FL, E-519). […] FP was measured every 5 min over a period of 1.5 h (within the linear range of the assay) using a Pherastar FSX (BMG Labtech) exciting at 530 nm and measuring the amount of parallel and perpendicular light at 575 nm. […]
pIC50: −log10 of the molar value.

smilesRepr | pIC50
C[C@H]1CN[C@H](c2ccc(-n3c(Cl)cc4c(=O)n(CC5(O)CCN(C(=O)[C@@]6(C)C[C@@H]6C(F)F)CC5)cnc43)cc2)CO1 | 6.60 to 7.00
C[C@H]1CN[C@H](c2ccc(-n3c(Cl)cc4c(=O)n(CC5(O)CCN(C(=O)[C@]6(C)C[C@H]6C(F)F)CC5)cnc43)cc2)CO1 | > 7.00
C[C@H]1CN[C@H](c2ccc(-n3c(Cl)cc4c(=O)n(CC5(O)CCN(C(=O)C[C@H](c6ccccc6)C(F)(F)F)CC5)cnc43)cc2)CO1 | > 7.00
